- system name: GSK-3β (AA 1-420) (Homo sapiens, UniProt P49841)
- Sequence (P49841 whole entry, the tested form may be a part): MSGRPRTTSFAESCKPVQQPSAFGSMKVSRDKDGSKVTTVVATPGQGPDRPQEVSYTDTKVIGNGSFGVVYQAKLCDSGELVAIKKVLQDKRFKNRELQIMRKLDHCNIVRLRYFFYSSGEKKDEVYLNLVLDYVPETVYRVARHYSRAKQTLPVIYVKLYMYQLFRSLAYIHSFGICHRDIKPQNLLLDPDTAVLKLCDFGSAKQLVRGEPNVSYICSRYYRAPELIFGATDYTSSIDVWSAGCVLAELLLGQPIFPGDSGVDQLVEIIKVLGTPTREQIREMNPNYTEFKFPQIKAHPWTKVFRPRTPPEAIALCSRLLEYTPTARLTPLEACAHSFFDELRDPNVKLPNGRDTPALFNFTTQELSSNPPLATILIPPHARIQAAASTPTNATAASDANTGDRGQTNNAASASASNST
pKi: −log10 of the molar value.
The following compounds are shown together with reported pKi values.

Answered examples (3):
| smiles text | system name | result |
| --- | --- | --- |
| Fc1cc(F)c2[nH]nc(Nc3nc(-c4ccccc4C(F)(F)F)nc4c3CCC4)c2c1 | GSK-3β (AA 1-420) (Homo sapiens, UniProt P49841) | > 7.00 |
| FC(F)(F)c1ccccc1-c1nc(Nc2n[nH]c(-c3ccccc3)c2-c2ccccc2)c2ccccc2n1 | GSK-3β (AA 1-420) (Homo sapiens, UniProt P49841) | 4.70 to 6.00 |
| Cc1cc(Nc2nc(-c3cccnc3)nc3ccccc23)[nH]n1 | GSK-3β (AA 1-420) (Homo sapiens, UniProt P49841) | > 7.00 |

Read the next record carefully.
Prompt: What pKi appears in the records for this compound with GSK-3β (AA 1-420) (Homo sapiens, UniProt P49841)? COc1cccc2c(Nc3n[nH]c4ccc(F)cc34)nc(-c3ccccc3C(F)(F)F)nc12
Response: > 7.00

---

Below is a list of entries, each paired with its recorded Ki value.
Target sequence: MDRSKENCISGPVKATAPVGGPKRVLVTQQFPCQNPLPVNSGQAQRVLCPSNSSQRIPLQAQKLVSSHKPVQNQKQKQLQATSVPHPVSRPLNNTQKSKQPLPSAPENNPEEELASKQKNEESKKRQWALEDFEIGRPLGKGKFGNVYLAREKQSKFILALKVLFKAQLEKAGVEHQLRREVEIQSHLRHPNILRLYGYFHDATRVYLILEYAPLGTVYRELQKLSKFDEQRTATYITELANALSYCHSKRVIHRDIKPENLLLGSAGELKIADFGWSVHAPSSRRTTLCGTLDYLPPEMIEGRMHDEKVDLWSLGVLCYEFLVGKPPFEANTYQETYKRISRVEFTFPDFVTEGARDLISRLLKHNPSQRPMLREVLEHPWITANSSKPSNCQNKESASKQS

The cases that follow already have their Ki on record.
| smiles text | Ki |
| --- | --- |
| c1ccc(-c2nc(Nc3ncn[nH]3)c3ccccc3n2)cc1 | 1000 to 20000 nM |
| Cc1cc(Nc2nc(-c3cccc(C#N)c3)nc3ccccc23)[nH]n1 | < 100 nM |
| Cc1cc(Nc2nc(N3CCC(N4CCCC4)CC3)nc3ccccc23)[nH]n1 | 100 to 1000 nM |

Query compound follows.
Prompt: So what does the record say about Ki for Cc1cc(Nc2nc(N3CCC(CCO)CC3)nc3ccccc23)[nH]n1 ?
Response: < 100 nM

Hello, the source for this data is patent US6610677B2, in case you need it.
